Where these numbers come from: patent US7294642B2

assay: Acyl group migration (rearrangement) of pro-drug in DMSO-d6/buffer solution monitored by 19F-NMR; assay type: physicochemical; details: pH 7, 40° C., time 0 hr
REPORTED PROPERTY: N-acyl prodrug (% present) (%)

Consider the following illustrative entries.
STRUCTURE SMILES: CCCN(CCC)C(=O)c1cc(C(=O)N(Cc2cccc(C(F)(F)F)c2)C[C@@H](O)[C@@H](N)Cc2cc(F)cc(F)c2)cc(-c2ncco2)c1.Cl
REPORTED PROPERTY: N-acyl prodrug (% present)
TEST VALUE: 100

STRUCTURE SMILES: C#Cc1cccc(C2(NC[C@@H](OC(=O)c3cc(C(=O)N(CCC)CCC)cc(-c4ncco4)c3)[C@@H](N)Cc3cc(F)cc(F)c3)CC2)c1
REPORTED PROPERTY: N-acyl prodrug (% present)
TEST VALUE: 0

STRUCTURE SMILES: CCCN(CCC)C(=O)c1cc(C(=O)O[C@H](CNCc2cccc(C(F)(F)F)c2)[C@@H](N)Cc2cc(F)cc(F)c2)cc(-c2ncco2)c1.Cl.Cl
REPORTED PROPERTY: N-acyl prodrug (% present)
TEST VALUE: 0

[A] CCCN(CCC)C(=O)c1cc(C(=O)N(Cc2cccc(CC)c2)C[C@@H](O)[C@@H](N)Cc2cc(F)cc(F)c2)cc(-c2ncco2)c1.Cl
[B] CCCN(CCC)C(=O)c1cc(C(=O)O[C@H](CNC2(c3cccc(CC)c3)CC2)[C@@H](N)Cc2cc(F)cc(F)c2)cc(-c2ncco2)c1.Cl.Cl
**Query** When A and B are compared, which has the higher number for N-acyl prodrug (% present)? Your choice should be expressed through its label.
**Result** A

====

assay: Acyl group migration (rearrangement) of pro-drug in DMSO-d6/buffer solution monitored by 19F-NMR; format: physicochemical; details: pH 7, 40° C., time 48 hr
REPORTED PROPERTY: N-acyl prodrug (% present) (%)

Consider the following illustrative entries.
COMPOUND: CCCN(CCC)C(=O)c1cc(C(=O)O[C@H](CNCc2cccc(CC)c2)[C@@H](N)Cc2cc(F)cc(F)c2)cc(-c2ncco2)c1.Cl.Cl [Preparation 16]
U: %
TEST VALUE: 29
--
COMPOUND: CCCN(CCC)C(=O)c1cc(C(=O)O[C@H](CNCc2cccc(C(F)(F)F)c2)[C@@H](N)Cc2cc(F)cc(F)c2)cc(-c2ncco2)c1.Cl.Cl [Preparation 18]
U: %
TEST VALUE: 27
--
COMPOUND: CCCN(CCC)C(=O)c1cc(C(=O)N(Cc2cccc(C(F)(F)F)c2)C[C@@H](O)[C@@H](N)Cc2cc(F)cc(F)c2)cc(-c2ncco2)c1.Cl [Preparation 20]
U: %
TEST VALUE: 27

[P] CCCN(CCC)C(=O)c1cc(C(=O)O[C@H](CNC2(c3cccc(CC)c3)CC2)[C@@H](N)Cc2cc(F)cc(F)c2)cc(-c2ncco2)c1.Cl.Cl [Preparation 17]
[Q] CCCN(CCC)C(=O)c1cc(C(=O)N(Cc2cccc(CC)c2)C[C@@H](O)[C@@H](N)Cc2cc(F)cc(F)c2)cc(-c2ncco2)c1.Cl [Preparation 19]
**Query** Kindly identify the item with the lower N-acyl prodrug (% present) figure among these two: P and Q Your choice should be expressed through its label.
**Result** P
(P: 0%, Q: 37%)
